test: Fraction unbound in rat brain; type: in vitro ADME; conditions: read-out: Rat Fu (brain)
readout kind: fraction unbound
Quick one: just the number, no unit, thanks!

Measured fraction unbound of Cc1c(N2CCc3nc(C4(F)CC4)sc3C2)nc2nn(C)c(=O)n2c1C : 0.06

---

biological target: P450 2D6 (Homo sapiens)
Sequence (P10635 whole entry): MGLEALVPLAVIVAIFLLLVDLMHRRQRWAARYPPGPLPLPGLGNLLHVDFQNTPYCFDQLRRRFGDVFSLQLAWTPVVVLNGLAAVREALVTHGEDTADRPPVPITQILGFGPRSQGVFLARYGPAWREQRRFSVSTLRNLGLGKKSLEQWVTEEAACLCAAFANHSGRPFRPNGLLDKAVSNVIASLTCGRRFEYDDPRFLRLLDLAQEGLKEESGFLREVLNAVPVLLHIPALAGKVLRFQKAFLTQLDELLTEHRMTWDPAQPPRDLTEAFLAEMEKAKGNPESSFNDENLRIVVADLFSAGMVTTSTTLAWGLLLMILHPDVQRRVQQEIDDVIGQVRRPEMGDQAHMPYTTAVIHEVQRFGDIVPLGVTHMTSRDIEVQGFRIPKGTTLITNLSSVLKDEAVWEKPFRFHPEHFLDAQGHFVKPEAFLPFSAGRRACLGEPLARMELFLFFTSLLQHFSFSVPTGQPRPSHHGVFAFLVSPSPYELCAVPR
readout kind: IC50

The compound listed as Cc1c(N2CCc3nc(C4(F)CC4)sc3C2)nc2nn(C)c(=O)n2c1C shows IC50 equal to > 30 µM

---

assay: In vivo pharmacokinetics in cynomolgus monkey; settings: plasma, read-out: Cyno Elim. t1/2 (converted)
readout kind: half-life (h)
Give the number; h is assumed, so skip it.

In plain terms, Cc1c(N2CCc3nc(C4(F)CC4)sc3C2)nc2nn(C)c(=O)n2c1C has a documented half-life of 4.2

---

target: Human M4 (Homo sapiens); experiment: M4 cell-based functional assay (calcium mobilization); set-up: expressed in transfected cells; settings: % ACh maximum at 30 μM
Sequence (P08173 whole entry): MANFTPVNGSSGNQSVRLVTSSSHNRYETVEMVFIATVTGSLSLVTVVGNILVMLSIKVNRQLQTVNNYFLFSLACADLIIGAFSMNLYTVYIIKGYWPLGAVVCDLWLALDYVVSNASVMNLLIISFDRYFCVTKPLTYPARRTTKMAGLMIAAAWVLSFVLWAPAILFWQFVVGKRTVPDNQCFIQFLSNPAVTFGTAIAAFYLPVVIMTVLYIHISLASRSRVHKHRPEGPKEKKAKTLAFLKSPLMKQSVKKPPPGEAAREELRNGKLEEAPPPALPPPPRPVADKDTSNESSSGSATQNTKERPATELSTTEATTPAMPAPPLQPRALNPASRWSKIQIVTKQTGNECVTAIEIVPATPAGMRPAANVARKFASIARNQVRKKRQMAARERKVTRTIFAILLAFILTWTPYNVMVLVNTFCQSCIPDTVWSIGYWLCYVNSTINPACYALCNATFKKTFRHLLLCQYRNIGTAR
Label 1 when Emax at 30 µM >= 90%; otherwise 0.

Answered examples (4):
Fc1ccc2ncnc(N3CCc4nc(Br)sc4C3)c2c1 [Compound 28]
1
Cc1cc2nc(C)c(C)c(=O)n2nc1N1CCc2nc(Br)sc2C1 [Compound 38]
0
Cc1cc2c(N3CCc4nc(Br)sc4C3)ncnc2s1 [Compound 24]
1
Cc1c(N2CCc3nc(C4(C)CC4)sc3C2)nc2n[nH]c(=O)n2c1C [Compound 68]
1

QUERY: Emax at 30 µM >= 90% for Cc1c(C#N)nnc(N2CCc3nc(C4CC4)sc3C2)c1C [Compound 12] ?
RESULT: 0

QUERY: Assess whether reported Emax at 30 µM for Cc1c(N2CCc3nc(C4(F)CC4)sc3C2)nc2nn(C)c(=O)n2c1C [Compound 70] sits at 90% or higher.
RESULT: 0

---

target: Human M4 (Homo sapiens); test: M4 cell-based functional assay (calcium mobilization); design: expressed in transfected cells; settings: % ACh maximum at 30 μM
readout kind: Emax at 30 µM (%)
The reply should be a number in %, with the unit left off.

The cases that follow already have their Emax at 30 µM on record.
Cc1c(N2CCc3nc(C4(F)CC4)sc3C2)nc2nn(CC3CC3)c(=O)n2c1C
109
Cc1cc2nc(C(=O)NCc3cncs3)cc(=O)n2nc1N1CCc2nc(Br)sc2C1
87
Cc1cc2nccnc2nc1N1CCc2nc(N)sc2C1
67
Cc1cn2c(=O)n(C)nc2nc1N1CCc2nc(C3CCC3)sc2C1
71

Note to self: Emax at 30 µM recorded for Cc1c(N2CCc3nc(C4CC4)sc3C2)nc2nn(CC3(C#N)CC3)c(=O)n2c1C was 91

What the record says about Cc1c(N2CCc3nc(C4CC4)sc3C2)nc2nn(CC3CC(F)(F)C3)c(=O)n2c1C : Emax at 30 µM is 105

Notebook: [2H]C([2H])([2H])c1nc2c(s1)CN(c1ncc(C#N)cc1C)CC2 , Emax at 30 µM read as 101

Emax at 30 µM reported for this molecule Cc1c(N2CCc3nc(C4CC4)sc3C2)nc2nn(CC3CC3(F)F)c(=O)n2c1C (centres unmarked) : 94

---

test: In vivo pharmacokinetics in dog; conditions: plasma, read-out: Dog Elim. t1/2 (converted)
readout kind: half-life (h)
Give your result in h as a bare value.

half-life in this record for Cc1c(N2CCc3nc(C4(F)CC4)sc3C2)nc2nn(C)c(=O)n2c1C [Compound 70] : 2.1
